Reported IC50 values for the following compounds.
Target: Recombinant IDO1 (Homo sapiens)
Construct: His tag (N); made in house; host or cells: E. coli
Sequence (P14902 whole entry): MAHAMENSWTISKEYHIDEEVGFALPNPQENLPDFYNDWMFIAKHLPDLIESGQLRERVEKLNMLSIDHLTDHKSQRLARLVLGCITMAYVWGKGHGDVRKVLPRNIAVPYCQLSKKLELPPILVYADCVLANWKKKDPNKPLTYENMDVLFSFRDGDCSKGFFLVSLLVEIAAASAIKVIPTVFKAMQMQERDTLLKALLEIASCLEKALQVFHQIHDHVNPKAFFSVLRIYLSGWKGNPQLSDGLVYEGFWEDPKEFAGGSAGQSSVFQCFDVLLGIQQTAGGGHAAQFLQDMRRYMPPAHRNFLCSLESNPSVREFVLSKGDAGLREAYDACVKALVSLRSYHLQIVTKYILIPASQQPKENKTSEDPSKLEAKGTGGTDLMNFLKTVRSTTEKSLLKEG
Experiment: IDO1 enzymatic assay
Format: biochemical
Conditions: Table 1, 5-substituted imidazo[1,5-a]pyridines; 50 nM IDO1, 1.3 mM D-tryptophan; read-out: Enzyme IC50 (nM) IDO1
reported-property: IC50 (nM)

[[record]]
compound = "Clc1cc(CC2CCCCC2)n2cncc2c1"
target_or_system = "Recombinant IDO1 (Homo sapiens)"
censoring_sign = "="
result_value = 107

[[record]]
compound = "OC(c1cc(C2CC2)cc2cncn12)C1CCCCC1 (stereo not shown) [Example A108, 2,2,2-trifluoroacetate]"
target_or_system = "Recombinant IDO1 (Homo sapiens)"
censoring_sign = "="
result_value = 36

[[record]]
compound = "OC(CC1CCCCC1)c1c(C(F)(F)F)ccc2cncn12 (single isomer, unassigned) [Example A127a]"
target_or_system = "Recombinant IDO1 (Homo sapiens)"
censoring_sign = "="
result_value = 17

[[record]]
compound = "COc1cc(C(O)C2CCCCC2)n2cncc2c1Cl (stereo not shown)"
target_or_system = "Recombinant IDO1 (Homo sapiens)"
censoring_sign = "="
result_value = 500

[[record]]
compound = "CC(C)c1ccc2cncn2c1C(O)C1CCCCC1 (stereo not shown)"
target_or_system = "Recombinant IDO1 (Homo sapiens)"
censoring_sign = "="
result_value = 39

[[record]]
compound = "OC(c1c(C2=CCCC2)ccc2cncn12)C1CCCCC1 (stereo not shown)"
target_or_system = "Recombinant IDO1 (Homo sapiens)"
censoring_sign = "="
result_value = 200

[[record]]
compound = "OC(c1c(F)c(Cl)cc2cncn12)C1CCCCC1 (stereo not shown)"
target_or_system = "Recombinant IDO1 (Homo sapiens)"
censoring_sign = "="
result_value = 48

[[record]]
compound = "CC(C)(C)OC(=O)N1CCC(C(=O)c2cccc3cncn23)CC1"
target_or_system = "Recombinant IDO1 (Homo sapiens)"
censoring_sign = ">"
result_value = 100000

[[record]]
compound = "OC(CC1CCCCC1)c1c(C2CC2)ccc2cncn12 (single isomer, unassigned) [Example A139b]"
target_or_system = "Recombinant IDO1 (Homo sapiens)"
censoring_sign = "="
result_value = 4500

[[record]]
compound = "O[C@H](c1c(C2CC2)ccc2cncn12)C1CC2CCC1C2 (stereo partly shown) [Example A162a]"
target_or_system = "Recombinant IDO1 (Homo sapiens)"
censoring_sign = "="
result_value = 11

[[record]]
compound = "OC(c1c(Br)ccc2cncn12)C1CCCC1 (stereo not shown)"
target_or_system = "Recombinant IDO1 (Homo sapiens)"
censoring_sign = "="
result_value = 37

[[record]]
compound = "OC(c1ccccc1)c1cccc2cncn12 (stereo not shown)"
target_or_system = "Recombinant IDO1 (Homo sapiens)"
censoring_sign = "="
result_value = 5100

[[record]]
compound = "OC(c1cc(I)cc2cncn12)C1CCCCC1 (stereo not shown) [Example A107, 2,2,2-trifluoroacetate]"
target_or_system = "Recombinant IDO1 (Homo sapiens)"
censoring_sign = "="
result_value = 26

[[record]]
compound = "OC(c1c(I)ccc2cncn12)C1CCCCC1 (single isomer, unassigned) [Example A125b]"
target_or_system = "Recombinant IDO1 (Homo sapiens)"
censoring_sign = "="
result_value = 12000

[[record]]
compound = "OC1CCC(C(O)c2c(C3CC3)ccc3cncn23)CC1 (single isomer, unassigned) [Example A142b]"
target_or_system = "Recombinant IDO1 (Homo sapiens)"
censoring_sign = "="
result_value = 31

[[record]]
compound = "OC(c1ccc(Cl)c2cncn12)C1CCCCC1 (stereo not shown)"
target_or_system = "Recombinant IDO1 (Homo sapiens)"
censoring_sign = "="
result_value = 3300

[[record]]
compound = "OC(c1cc(C(F)(F)F)cc2cncn12)C1CCCC1 (stereo not shown)"
target_or_system = "Recombinant IDO1 (Homo sapiens)"
censoring_sign = "="
result_value = 66

[[record]]
compound = "Cc1ccc2cncn2c1C(O)C1CCCCC1 (stereo not shown)"
target_or_system = "Recombinant IDO1 (Homo sapiens)"
censoring_sign = "="
result_value = 28

[[record]]
compound = "OC(c1c(Cl)c(Br)cc2cncn12)C1CCCC1 (stereo not shown)"
target_or_system = "Recombinant IDO1 (Homo sapiens)"
censoring_sign = "="
result_value = 35


====

Molecular target: Recombinant TDO (Homo sapiens, UniProt P48775)
Construct: His tag (C); made in house; host or cells: E. coli
Sequence (P48775 whole entry): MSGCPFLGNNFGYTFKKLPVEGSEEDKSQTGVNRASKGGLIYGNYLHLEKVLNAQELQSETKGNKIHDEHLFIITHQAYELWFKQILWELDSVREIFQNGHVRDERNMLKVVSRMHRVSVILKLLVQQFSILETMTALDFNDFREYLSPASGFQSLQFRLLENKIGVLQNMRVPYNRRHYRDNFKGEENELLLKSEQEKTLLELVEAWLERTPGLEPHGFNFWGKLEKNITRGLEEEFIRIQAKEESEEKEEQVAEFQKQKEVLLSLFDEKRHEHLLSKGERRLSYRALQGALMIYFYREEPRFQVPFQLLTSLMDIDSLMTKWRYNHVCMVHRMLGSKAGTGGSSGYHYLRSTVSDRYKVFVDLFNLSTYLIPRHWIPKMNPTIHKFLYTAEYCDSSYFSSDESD
Assay: TDO enzymatic assay
Format: biochemical
Conditions: Table 1, 5-substituted imidazo[1,5-a]pyridines; 100 nM TDO, 0.5 mM L-tryptophan; read-out: Enzyme IC50 (nM) TDO
Examples of compounds with documented IC50 follow.
reported-property: IC50

[[record]]
compound = "C#Cc1ccc2cncn2c1C(O)C1CCCCC1 (stereo not shown)"
reported_property = "IC50"
result_value = "7900 nM"

[[record]]
compound = "OC(CC1CCCCC1)c1c(C(F)(F)F)ccc2cncn12 (single isomer, unassigned) [Example A127b]"
reported_property = "IC50"
result_value = "25000 nM"

[[record]]
compound = "OC(c1cc(I)cc2cncn12)C1CCCCC1 (stereo not shown) [Example A107, 2,2,2-trifluoroacetate]"
reported_property = "IC50"
result_value = "110 nM"

[[record]]
compound = "OC(CC1CCCCC1)c1c(C(F)(F)F)ccc2cncn12 (single isomer, unassigned) [Example A127a]"
reported_property = "IC50"
result_value = "15000 nM"

[[record]]
compound = "FC(c1cc(Cl)cc2cncn12)C1CCC(F)(F)CC1 (stereo not shown)"
reported_property = "IC50"
result_value = "350 nM"

[[record]]
compound = "OC(c1c(Cl)c(C(F)(F)F)cc2cncn12)C1CCCCC1 (stereo not shown)"
reported_property = "IC50"
result_value = "1600 nM"

[[record]]
compound = "OC(CC1CCCCC1)c1c(Cl)c(Cl)cc2cncn12 (single isomer, unassigned) [Example A144a]"
reported_property = "IC50"
result_value = "23000 nM"

[[record]]
compound = "OC(c1c(Cl)c(Cl)c(Cl)c2cncn12)C1CCCCC1 (stereo not shown)"
reported_property = "IC50"
result_value = "8400 nM"

[[record]]
compound = "OC(c1c(C(F)(F)F)ccc2cncn12)C1CC1 (stereo not shown)"
reported_property = "IC50"
result_value = "75000 nM"

[[record]]
compound = "OC(c1c(I)ccc2cncn12)C1CC1 (stereo not shown)"
reported_property = "IC50"
result_value = "26000 nM"

[[record]]
compound = "OC(c1cc(Br)cc2cncn12)C1CCCCC1 (stereo not shown)"
reported_property = "IC50"
result_value = "63 nM"

[[record]]
compound = "OC(c1cccc2cncn12)C1CCCCC1 (stereo not shown) [Example A001]"
reported_property = "IC50"
result_value = "260 nM"

[[record]]
compound = "OC(c1c(Cl)c(Cl)cc2cncn12)C1CCCCC1 (single isomer, unassigned) [Example A143a]"
reported_property = "IC50"
result_value = "690 nM"

[[record]]
compound = "OC(CCC1CCCCC1)c1cc(Cl)cc2cncn12 (stereo not shown)"
reported_property = "IC50"
result_value = "1100 nM"

[[record]]
compound = "OC(CC1CCCCC1)c1c(Cl)ccc2cncn12 (single isomer, unassigned) [Example A117b]"
reported_property = "IC50"
result_value = "35000 nM"

[[record]]
compound = "OC(c1c(C2CC2)ccc2cncn12)C1CCCCC1 (single isomer, unassigned) [Example A126b]"
reported_property = "IC50"
result_value = "74000 nM"

[[record]]
compound = "OC(CC1CCCCC1)c1c(C2CC2)ccc2cncn12 (single isomer, unassigned) [Example A139b]"
reported_property = "IC50"
result_value = "13000 nM"

[[record]]
compound = "c1cc(CC2CCCCC2)n2cncc2c1"
reported_property = "IC50"
result_value = "260 nM"

[[record]]
compound = "OC(c1c(Br)ccc2cncn12)C1CCCCC1 (single isomer, unassigned) [Example A118b]"
reported_property = "IC50"
result_value = "53000 nM"

[[record]]
compound = "OC(CC1CCCCC1)c1c(Cl)c(Cl)cc2cncn12 (stereo not shown) [Example A144]"
reported_property = "IC50"
result_value = "1500 nM"

[[record]]
compound = "OC(CC1CCCCC1)c1c(C2CC2)ccc2cncn12 (single isomer, unassigned) [Example A139a]"
reported_property = "IC50"
result_value = "1800 nM"

[[record]]
compound = "OC(c1c(Cl)ccc2cncn12)C1CCCCC1 (stereo not shown) [Example A116]"
reported_property = "IC50"
result_value = "270 nM"

[[record]]
compound = "OC(CC1CCCCC1)c1cc(Cl)cc2cncn12 (single isomer, unassigned) [Example A102b]"
reported_property = "IC50"
result_value = "1200 nM"

[[record]]
compound = "OC(CC1CCCCC1)c1c(C2CC2)ccc2cncn12 (stereo not shown) [Example A139]"
reported_property = "IC50"
result_value = "2400 nM"

[[record]]
compound = "OC(c1cc(Cl)c(Cl)c2cncn12)C1CCCCC1 (stereo not shown)"
reported_property = "IC50"
result_value = "210 nM"

[[record]]
compound = "OC(c1c(C2CC2)ccc2cncn12)C1CCCCC1 (single isomer, unassigned) [Example A129a]"
reported_property = "IC50"
result_value = "1700 nM"

[[record]]
compound = "OC(c1cccc2cncn12)C1CCCCC1 (single isomer, unassigned) [Example A001a]"
reported_property = "IC50"
result_value = "610 nM"

[[record]]
compound = "OC(CC1CCCCC1)c1c(I)ccc2cncn12 (stereo not shown) [Example A124]"
reported_property = "IC50"
result_value = "8700 nM"

[[record]]
compound = "O[C@H](c1cc(Cl)cc2cncn12)C1CCCCC1 [Example A101a]"
reported_property = "IC50"
result_value = "29 nM"

[[record]]
compound = "OC(c1c(I)ccc2cncn12)C1CCCCC1 (single isomer, unassigned) [Example A125b]"
reported_property = "IC50"
result_value = "46000 nM"

[[record]]
compound = "OC(c1c(C2CC2)ccc2cncn12)C1CCCCC1 (stereo not shown) [Example A129]"
reported_property = "IC50"
result_value = "4700 nM"

[[record]]
compound = "OC(CC1CCCCC1)c1cc(C(F)(F)F)cc2cncn12 (single isomer, unassigned) [Example A114b]"
reported_property = "IC50"
result_value = "170 nM"

[[record]]
compound = "OC(CC1CCCCC1)c1c(Br)ccc2cncn12 (single isomer, unassigned) [Example A119b]"
reported_property = "IC50"
result_value = "38000 nM"

[[record]]
compound = "OC(c1c(C(F)(F)F)ccc2cncn12)C1CCCC1 (stereo not shown)"
reported_property = "IC50"
result_value = "36000 nM"

[[record]]
compound = "OC(c1c(-c2ccccc2)ccc2cncn12)C1CCCCC1 (stereo not shown)"
reported_property = "IC50"
result_value = "1700 nM"

[[record]]
compound = "OC(c1c(I)ccc2cncn12)C1CCCCC1 (stereo not shown) [Example A125]"
reported_property = "IC50"
result_value = "5600 nM"

[[record]]
compound = "OC(c1c(Br)ccc2cncn12)C1CCCCC1 (stereo not shown) [Example A118]"
reported_property = "IC50"
result_value = "5700 nM"

